experimental target: MMP-12 (Homo sapiens, UniProt P39900)
Construct: catalytic domain(^100Phe˜^263Gly) was amplified with RT-PCR; His-tag; enterokinase digestion-site; made in house; host or cells: Escherichia coli
Sequence (P39900 100-263): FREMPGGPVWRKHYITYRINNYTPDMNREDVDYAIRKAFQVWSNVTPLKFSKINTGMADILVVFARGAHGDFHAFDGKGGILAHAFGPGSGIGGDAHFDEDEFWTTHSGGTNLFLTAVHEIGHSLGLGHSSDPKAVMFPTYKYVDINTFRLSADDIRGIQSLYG
experiment notes: Assay for inhibitory activities on MMPs (fluorogenic peptide substrate), MMP-12
Type: biochemical
particulars: catalytic domain 100Phe-263Gly; substrate MOCAc-Pro-Leu-Gly-Leu-A2Pr(DNP)-Ala-Arg-NH2
Let's look at some compounds and their measured IC50.
Give a bare numeral; the unit nM is implied.

# entry smiles, measured quantity, measured number
data = [
    ("O=C(O)[C@@H](Cc1ccccc1)NS(=O)(=O)c1ccc(-c2ncc(-c3ccc(Cl)cc3)s2)cc1", "IC50", 1.41),
    ("C[C@@H](NS(=O)(=O)c1ccc(-c2ncc(-c3ccc4ccccc4c3)s2)cc1)C(=O)O", "IC50", 2.54),
    ("CC(C)[C@@H](NS(=O)(=O)c1ccc(-c2ncc(-c3ccccc3)s2)cc1)C(=O)O", "IC50", 2.92),
    ("C[C@@H](NS(=O)(=O)c1ccc(-c2ncc(-c3ccc(Br)cc3)s2)cc1)C(=O)O", "IC50", 0.47),
]

Can you share its IC50? I mean this compound: `C[C@H](NS(=O)(=O)c1ccc(-c2ncc(-c3ccc(Cl)cc3)o2)cc1)C(=O)O`
28.4

Can you share its IC50? I mean this compound: `CC(C)C[C@@H](NS(=O)(=O)c1ccc(-c2ncc(-c3ccc(Cl)cc3)s2)cc1)C(=O)O`
4.55

Can you share its IC50? I mean this compound: `C[C@@H](NS(=O)(=O)c1ccc(-c2ncc(-c3ccc(F)cc3)o2)cc1)C(=O)O`
12.5

###

experimental target: MMP-12 (Homo sapiens)
Construct: catalytic domain(^100Phe˜^263Gly) was amplified with RT-PCR; His-tag; enterokinase digestion-site; made in house; host or cells: Escherichia coli
experiment notes: Assay for inhibitory activities on MMPs (fluorogenic peptide substrate), MMP-12
Assay type: biochemical
particulars: catalytic domain 100Phe-263Gly; substrate MOCAc-Pro-Leu-Gly-Leu-A2Pr(DNP)-Ala-Arg-NH2
Procedure: In regard to MMP-12, catalytic domain(^100Phe˜^263Gly) was amplified with RT-PCR from Human Placenta Total RNA. This was cloned in Escherichia. coli expression vector pTrc99AHE inserted with His-tag sequence and enterokinase digestion-site, induced and expressed by IPTG (Isopropyl-β-D-thiogalactopyranoside) and expressed in a insoluble fraction. […] The enzymatic activity on MMPs was analyzed by the method described in “C. […]
Let's look at some molecules and their measured log10 of IC50.
Recall that a logarithmic scale is used here: each number is log10 of IC50 in nM.

Examples with their reported log10 of IC50 follow.
# molecule, log10 of IC50
rows = [
    ("CC(C)[C@H](NS(=O)(=O)c1ccc(-c2ncc(-c3ccc(Cl)cc3)s2)cc1)C(=O)O [Compound B-5]", 0.12),
    ("C[C@@H](NS(=O)(=O)c1ccc(-c2ncc(-c3ccc(Cl)cc3)s2)cc1)C(=O)O [Compound B-25]", -0.02),
    ("COc1ccc(-c2cnc(-c3ccc(S(=O)(=O)N[C@@H](C)C(=O)O)cc3)o2)cc1 [Compound A-9]", 1.44),
    ("COc1ccc(-c2cnc(-c3ccc(S(=O)(=O)N[C@@H](C)C(=O)O)cc3)s2)cc1 [Compound B-24]", 0.18),
]

Can you share its log10 of IC50? I mean this molecule: O=C(O)[C@@H](Cc1ccccc1)NS(=O)(=O)c1ccc(-c2ncc(-c3ccccc3)s2)cc1 [Compound B-11]
0.38

Can you share its log10 of IC50? I mean this molecule: CC(C)[C@@H](NS(=O)(=O)c1ccc(-c2ncc(-c3ccc(Cl)cc3)s2)cc1)C(=O)O [Compound B-4]
0.49

Can you share its log10 of IC50? I mean this molecule: C[C@@H](NS(=O)(=O)c1ccc(-c2ncc(-c3ccc4ccccc4c3)o2)cc1)C(=O)O [Compound A-46]
0.35

###

experimental target: MMP-2 (Homo sapiens)
Construct: purchased Calbiochem-Novabiochem International, Inc
Sequence (P08253 110-660): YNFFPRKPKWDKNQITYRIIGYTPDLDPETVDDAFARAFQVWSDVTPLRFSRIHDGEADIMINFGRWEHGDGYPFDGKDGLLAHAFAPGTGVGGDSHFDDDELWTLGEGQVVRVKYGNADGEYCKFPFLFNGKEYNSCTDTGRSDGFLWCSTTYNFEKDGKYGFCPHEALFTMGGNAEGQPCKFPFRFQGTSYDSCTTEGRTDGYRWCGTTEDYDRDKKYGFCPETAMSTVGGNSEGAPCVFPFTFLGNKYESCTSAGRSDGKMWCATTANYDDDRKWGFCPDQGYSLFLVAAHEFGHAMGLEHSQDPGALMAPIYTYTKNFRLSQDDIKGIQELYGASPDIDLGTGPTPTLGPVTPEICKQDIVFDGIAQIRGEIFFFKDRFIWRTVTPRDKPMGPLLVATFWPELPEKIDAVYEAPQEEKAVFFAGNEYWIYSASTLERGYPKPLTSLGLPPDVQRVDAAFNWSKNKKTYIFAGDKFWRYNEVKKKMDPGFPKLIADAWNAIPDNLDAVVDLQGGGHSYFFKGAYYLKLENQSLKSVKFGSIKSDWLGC
experiment notes: Assay for inhibitory activities on MMPs (fluorogenic peptide substrate), MMP-2
Assay type: biochemical
particulars: purchased MMP-2; substrate MOCAc-Pro-Leu-Gly-Leu-A2Pr(DNP)-Ala-Arg-NH2
measured quantity: IC50 (nM)
Give a bare numeral; the unit nM is implied.

Examples with their reported IC50 follow.
# entry smiles, experimental target, measured number
records = [
    ("O=C(O)[C@H](Cc1ccccc1)NS(=O)(=O)c1ccc(-c2ncc(-c3ccc(Cl)cc3)s2)cc1", "MMP-2 (Homo sapiens)", 2.56),
    ("O=C(O)C[C@@H](NS(=O)(=O)c1ccc(-c2ncc(-c3ccc(Cl)cc3)s2)cc1)C(=O)O", "MMP-2 (Homo sapiens)", 2.14),
    ("O=C(O)[C@@H](Cc1ccccc1)NS(=O)(=O)c1ccc(-c2ncc(-c3ccc(Cl)cc3)s2)cc1", "MMP-2 (Homo sapiens)", 1.2),
]

Now for a further molecule.
Can you share its IC50? I mean this molecule: `COc1ccc(-c2cnc(-c3ccc(S(=O)(=O)N[C@H](Cc4ccccc4)C(=O)O)cc3)s2)cc1`
1.29

###

Let's look at some molecules and their measured IC50.
experimental target: MMP-2 (Homo sapiens)
Construct: purchased Calbiochem-Novabiochem International, Inc
Sequence (P08253 110-660): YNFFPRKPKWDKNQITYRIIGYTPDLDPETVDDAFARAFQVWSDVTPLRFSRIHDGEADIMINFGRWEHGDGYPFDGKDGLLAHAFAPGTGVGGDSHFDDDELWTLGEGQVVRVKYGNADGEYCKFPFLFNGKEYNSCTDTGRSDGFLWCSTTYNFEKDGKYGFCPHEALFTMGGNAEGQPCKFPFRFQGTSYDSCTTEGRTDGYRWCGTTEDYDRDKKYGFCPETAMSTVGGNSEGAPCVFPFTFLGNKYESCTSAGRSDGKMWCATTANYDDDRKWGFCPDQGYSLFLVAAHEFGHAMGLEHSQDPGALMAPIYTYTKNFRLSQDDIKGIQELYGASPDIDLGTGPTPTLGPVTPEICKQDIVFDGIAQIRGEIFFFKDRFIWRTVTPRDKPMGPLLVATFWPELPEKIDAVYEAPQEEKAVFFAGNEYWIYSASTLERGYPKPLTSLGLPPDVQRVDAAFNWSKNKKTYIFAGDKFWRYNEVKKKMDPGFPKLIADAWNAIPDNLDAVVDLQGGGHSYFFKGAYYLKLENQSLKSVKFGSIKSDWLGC
experiment notes: Assay for inhibitory activities on MMPs (fluorogenic peptide substrate), MMP-2
Format: biochemical
particulars: purchased MMP-2; substrate MOCAc-Pro-Leu-Gly-Leu-A2Pr(DNP)-Ala-Arg-NH2
Give a bare numeral; the unit nM is implied.

Can you share its IC50? I mean this molecule: `O=C(O)CNS(=O)(=O)c1ccc(-c2ncc(-c3ccc(Cl)cc3)s2)cc1`
2.5

Can you share its IC50? I mean this molecule: `C[C@@H](NS(=O)(=O)c1ccc(-c2ncc(-c3ccccc3)s2)cc1)C(=O)O`
1.47

Can you share its IC50? I mean this molecule: `O=C(O)[C@@H](Cc1ccccc1)NS(=O)(=O)c1ccc(-c2ncc(-c3ccc(F)cc3)o2)cc1`
14.4

Can you share its IC50? I mean this molecule: `CC(C)[C@H](NS(=O)(=O)c1ccc(-c2ncc(-c3ccc(Cl)cc3)s2)cc1)C(=O)O`
5.24

Can you share its IC50? I mean this molecule: `O=C(O)[C@@H](Cc1c[nH]c2ccccc12)NS(=O)(=O)c1ccc(-c2ncc(-c3ccc(Cl)cc3)s2)cc1`
0.276

Can you share its IC50? I mean this molecule: `COc1ccc(-c2cnc(-c3ccc(S(=O)(=O)N[C@H](Cc4ccccc4)C(=O)O)cc3)o2)cc1`
2.66

Can you share its IC50? I mean this molecule: `CC(C)[C@H](NS(=O)(=O)c1ccc(-c2ncc(-c3ccccc3)s2)cc1)C(=O)O`
7.45
